# method notes: physchem
# assay setup: organic solvent or mixture, thermodynamic from solid, Solubility, SN-38 1 mg in 1 ml anhydrous ethanol, amine compound 10 equivalents, room temperature 12 hours
property label: solubility at 12 h

## Input Give its solubility at 12 h value. Item: CCc1c2c(nc3ccc(O)cc13)-c1cc3c(c(=O)n1C2)COC(=O)C3(O)CC (stereo not shown) [SN-38, 7-ethyl-10-hydroxycamptothecin]
## Output ≥ 1000 µg/mL

* * *

# method notes: physchem
# assay setup: organic solvent or mixture, thermodynamic from solid, Solubility, SN-38 1 mg in 1 ml organic solvent, tromethamine 10 equivalents, room temperature 12 hours
property label: solubility at 12 h

## Input Give its solubility at 12 h value. Item: CCc1c2c(nc3ccc(O)cc13)-c1cc3c(c(=O)n1C2)COC(=O)C3(O)CC (stereo not shown) [SN-38, 7-ethyl-10-hydroxycamptothecin]
## Output ≥ 1000 µg/mL
